Sourced from patent US20200087373A1

ASSAY_TARGET: T1, human GIP receptor (human, UniProt P48546 22-466)
T1 construct: whole, on cells; also called hGIPR
T1 sequence (looked up): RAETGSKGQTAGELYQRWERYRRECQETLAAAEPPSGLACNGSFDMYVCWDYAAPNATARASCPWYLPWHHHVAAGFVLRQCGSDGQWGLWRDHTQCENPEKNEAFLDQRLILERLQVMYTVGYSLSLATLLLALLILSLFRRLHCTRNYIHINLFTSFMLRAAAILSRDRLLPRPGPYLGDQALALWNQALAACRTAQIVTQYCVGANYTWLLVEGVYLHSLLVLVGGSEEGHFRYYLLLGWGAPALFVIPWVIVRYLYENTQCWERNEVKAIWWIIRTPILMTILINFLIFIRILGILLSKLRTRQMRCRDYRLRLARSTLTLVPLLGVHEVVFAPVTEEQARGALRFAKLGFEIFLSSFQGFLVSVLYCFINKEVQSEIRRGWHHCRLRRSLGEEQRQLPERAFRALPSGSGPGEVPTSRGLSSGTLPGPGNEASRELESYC
TEST_DETAILS: 125I-hGIP competition binding, COS-7/hGIPR, 0.1% casein;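 also: nonspecific binding defined as radioligand binding measured on untransfected cells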
pIC50: −log10 of the molar value. Ends that are not written are not given here. * marks the point of attachment. Stearoyl = CCCCCCCCCCCCCCCCCC(=O)*; Myristoyl = CCCCCCCCCCCCCC(=O)*
// reported pIC50 for each item listed
REPORTED_METRIC: pIC50

BINDER	REPORTED_METRIC	ENDPOINT_VALUE
EGTFISDYSIAMDK(Stearoyl)IHQQDFVNWLLAQK-NH2 [AT114 [hGIP(3-30)NH2-C18/16]]	pIC50	6.31
EGTFISDYSIAMDK(Myristoyl)IHQQDFVNWLLAQK-NH2 [AT111 [hGIP(3-30)NH2-C14/16]]	pIC50	6.39
{C18 fatty acyl}-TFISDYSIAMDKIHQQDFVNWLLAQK-NH2 [AT127 [hGIP(5-30)NH2-C18/5]]	pIC50	5.83
TKISDYSIAMDKIHQQDFVNWLLAQK (C16-diacid fatty acyl on Lys 6 (GIP numbering); C-terminal amide) [AT168 [hGIP(5-30)NH2[F6K]-C16diacid/6]]	pIC50	7.30
